# study-target: human GLP-1 receptor (human, UniProt P43220 24-463)
# experiment-summary: cell-based or functional assay
binders and their reported cAMP EC50
experimental-endpoint: cAMP EC50 (nM)

| binder | endpoint-value |
| --- | --- |
| IP273 (Fc fusion) YSEGTFTSDYSKLLEEEAVRLFIEWLVKGPAAAGGSGSTASSGSGSATGGGGAATHTCPPC | 0.1 |
| IP257 (Fc fusion) SEGTFTSDYSKLLEEEAVRLFIEWLVKGPGGGGGSGGGGSGGGGSGGGGSATHTCPPCPAPEF | 7.2 |
| IP214 (Fc fusion) HGEGTFTSDVSSYMEAQKIDEFIAWLVKGAPPGGSGSTASSGSGSATGGGGAATHTCPPCPAPEF | 0.075 |
